Molecular target: scMtRNAP ΔHNG;MTF1 (yeast mitochondrial transcription factor) (Saccharomyces cerevisiae?;Saccharomyces …, UniProt P13433;P14908 1-640+644-1351;1-341, internal_change|)
Assay: EMSA
outcome-measure: pKd
One number for each entry, as −log10 of the molar value.

[Q] Returns the measured pKd for the input binder. Input: 33 bp Bubble (pre-melted) promoter (dsDNA) DNA 1: CGCGTAAAACTATTCTTTATTACTTATATCGCG DNA 2: CGCGATATGCAGCTTAAAGAATAGTTTTACGCG
[A] 6.47
